Molecular target: human SGLT1 (Homo sapiens (Human))
Assay: SGLT1 inhibitory activity: 14C-AMG uptake into CHO-K1 cell line stably expressing human SGLT1
Type: cell-based
Conditions: 14C-AMG uptake, CHO-K1 cells expressing human SGLT1

- compound: "O=C1C[C@@H](C(=O)Nc2cc(-c3cccc(OC(F)(F)F)c3)n(C3CCCCCC3)n2)CN1"
  unit_name: "nM"
  IC50: 50
- compound: "CCC(F)(F)c1cccc(-c2cc(NC(=O)[C@H]3CNC(=O)C3)nn2-c2cccc(Cl)c2)c1"
  unit_name: "nM"
  IC50: 1.7
- compound: "CCCc1cccc(-c2cc(NC(=O)[C@H]3CNC(=O)C3)nn2-c2ccccc2OC)c1"
  unit_name: "nM"
  IC50: 11
- compound: "O=C1CCC(C(=O)Nc2cc(-c3cccc(OC(F)(F)F)c3)n(C3CCOCC3)n2)CN1 (single isomer, unassigned)"
  unit_name: "nM"
  IC50: 200
- compound: "O=C1C[C@@H](C(=O)Nc2cc(-c3cccc(OC(F)(F)F)c3)n(CCC3CCOCC3)n2)CN1"
  unit_name: "nM"
  IC50: 93
- compound: "CCC(F)(F)c1cccc(-c2cc(NC(=O)[C@H]3CNC(=O)[C@@H]3C)nn2CCOC(C)C)c1"
  unit_name: "nM"
  IC50: 55
- compound: "Cc1cc(F)ccc1-n1nc(NC(=O)[C@H]2CNC(=O)C2)cc1-c1cccc(OC(F)(F)F)c1"
  unit_name: "nM"
  IC50: 8.3
- compound: "CCCc1cc(F)cc(-c2cc(NC(=O)[C@@H]3CNC(=O)C3)nn2-c2ccccc2)c1"
  unit_name: "nM"
  IC50: 3.9
- compound: "O=C1C[C@@H](C(=O)Nc2cc(-c3cccc(OC(F)(F)F)c3)n(CCc3ccccc3)n2)CN1"
  unit_name: "nM"
  IC50: 85
- compound: "C[C@H]1C(=O)NC[C@@H]1C(=O)Nc1cc(-c2cccc(OC(F)(F)F)c2)n(-c2ccccc2F)n1"
  unit_name: "nM"
  IC50: 2.9
- compound: "CCCc1cccc(-c2cc(NC(=O)[C@H]3CNC(=O)C3)nn2CCC2CCCCC2)c1"
  unit_name: "nM"
  IC50: 12
- compound: "CCC(F)(F)c1cccc(-c2cc(NC(=O)[C@H]3CNC(=O)C3)nn2-c2ccccc2F)c1"
  unit_name: "nM"
  IC50: 3.8
- compound: "O=C1C[C@@H](C(=O)Nc2cc(C3CCCC3)n(-c3ccccc3)n2)CN1"
  unit_name: "nM"
  IC50: 2400
- compound: "CCCc1cccc(-c2cc(NC(=O)[C@H]3CNC(=O)C3)nn2C(F)(F)F)c1"
  unit_name: "nM"
  IC50: 54
- compound: "O=C1C[C@@H](C(=O)Nc2cc(-c3cccc(OCC(F)(F)F)c3)n(-c3cccc(F)c3)n2)CN1"
  unit_name: "nM"
  IC50: 4.8
- compound: "CCCc1cccc(-c2cc(NC(=O)[C@H]3CNC(=O)C3)nn2-c2ccc(C)cc2)c1"
  unit_name: "nM"
  IC50: 3.5
- compound: "CCCc1cccc(-c2cc(NC(=O)[C@@H]3CNC(=O)C3)nn2-c2ccc(F)cc2)c1"
  unit_name: "nM"
  IC50: 15

---

# key: entry, value: IC50
Target: human SGLT1 (Homo sapiens (Human))
Experiment: SGLT1 inhibitory activity: 14C-AMG uptake into CHO-K1 cell line stably expressing human SGLT1
Format: cell-based
Settings: 14C-AMG uptake, CHO-K1 cells expressing human SGLT1

- compound: "C[C@H]1C(=O)NC[C@@H]1C(=O)Nc1cc(-c2cccc(C(C)(C)C)c2)n(C2CCOCC2)n1"
  IC50 [nM]: 14
- compound: "CCC(F)(F)c1cccc(-c2cc(NC(=O)[C@H]3CNC(=O)C3)nn2-c2ccc(F)cc2)c1"
  IC50 [nM]: 13
- compound: "CCCCc1cccc(-c2cc(NC(=O)[C@H]3CNC(=O)C3)nn2-c2ccccc2)c1"
  IC50 [nM]: 4.3
- compound: "O=C1CCC(C(=O)Nc2cc(-c3cccc(OC(F)(F)F)c3)n(-c3ccc(F)cc3)n2)CN1 (single isomer, unassigned)"
  IC50 [nM]: 22

---

Target: human SGLT1 (Homo sapiens (Human), UniProt P13866)
Sequence (P13866 whole entry): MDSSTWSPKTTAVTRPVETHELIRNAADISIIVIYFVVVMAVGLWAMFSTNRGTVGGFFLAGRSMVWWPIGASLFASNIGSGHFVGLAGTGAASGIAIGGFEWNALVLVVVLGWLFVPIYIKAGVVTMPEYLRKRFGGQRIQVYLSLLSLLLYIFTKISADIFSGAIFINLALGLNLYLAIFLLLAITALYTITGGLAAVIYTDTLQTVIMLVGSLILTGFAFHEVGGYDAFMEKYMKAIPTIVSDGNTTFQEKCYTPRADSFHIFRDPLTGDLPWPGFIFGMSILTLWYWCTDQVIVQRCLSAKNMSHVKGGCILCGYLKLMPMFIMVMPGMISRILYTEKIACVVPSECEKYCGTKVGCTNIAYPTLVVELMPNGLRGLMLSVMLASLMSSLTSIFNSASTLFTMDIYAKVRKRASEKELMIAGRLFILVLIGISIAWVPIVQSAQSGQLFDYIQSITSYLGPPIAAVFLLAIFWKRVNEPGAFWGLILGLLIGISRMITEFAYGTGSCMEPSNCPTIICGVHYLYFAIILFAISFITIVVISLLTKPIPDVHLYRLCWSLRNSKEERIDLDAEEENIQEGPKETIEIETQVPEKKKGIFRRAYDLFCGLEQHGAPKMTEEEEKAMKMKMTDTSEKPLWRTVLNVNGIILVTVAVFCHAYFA
Test: SGLT1 inhibitory activity: 14C-AMG uptake into CHO-K1 cell line stably expressing human SGLT1
Format: cell-based
Conditions: 14C-AMG uptake, CHO-K1 cells expressing human SGLT1
# key: entry, value: IC50
quantity_measured: IC50 (nM)

- compound: "CCC(F)(F)c1cccc(-c2cc(NC(=O)[C@H]3CNC(=O)C3)nn2C2CCOCC2)c1 [Example 155]"
  reported_measurement: 19
- compound: "CC(C)(C)c1cccc(-c2cc(NC(=O)[C@H]3CNC(=O)C3)nn2C2CCCCCC2)c1 [Example 84]"
  reported_measurement: 7.2
- compound: "O=C1C[C@@H](C(=O)Nc2cc(-c3cccc(OC(F)(F)F)c3)n(CCC(F)(F)F)n2)CN1 [Example 190]"
  reported_measurement: 130
- compound: "CCCc1cccc(-c2cc(NC(=O)[C@H]3CNC(=O)C3)nn2-c2cccc(C)c2)c1 [Example 76]"
  reported_measurement: 1.7
- compound: "O=C1C[C@@H](C(=O)Nc2cc(-c3cccc(OC(F)(F)F)c3)n(-c3ccc(F)cc3F)n2)CN1 [Example 183]"
  reported_measurement: 20100
- compound: "CCCc1cccc(-c2cc(NC(=O)C3CNC(=O)C3)nn2C(C)(C)C)c1 (racemic) [Example 42]"
  reported_measurement: 190
- compound: "O=C1C[C@@H](C(=O)Nc2cc(-c3cccc(CO)c3)n(-c3ccccc3)n2)CN1 [Example 119]"
  reported_measurement: 570
- compound: "O=C1C[C@@H](C(=O)Nc2cc(-c3cccc(C(F)(F)F)c3)n(-c3cccc(F)c3)n2)CN1 [Example 213]"
  reported_measurement: 14
- compound: "C[C@H]1C(=O)NC[C@@H]1C(=O)Nc1cc(-c2cccc(C(F)(F)F)c2)n(-c2ccccc2)n1 [Example 207]"
  reported_measurement: 4.7
- compound: "Cc1ccccc1-c1cc(NC(=O)[C@H]2CNC(=O)C2)nn1-c1ccccc1 [Example 56]"
  reported_measurement: 14300
- compound: "CCC(F)(F)c1cccc(-c2cc(NC(=O)C3CCC(=O)NC3)nn2C2CCOCC2)c1 (single isomer, unassigned) [Example 185]"
  reported_measurement: 66
- compound: "CCCc1cccc(-c2cc(NC(=O)[C@@H]3CNC(=O)C3)nn2C(F)(F)F)c1 [Example 87]"
  reported_measurement: 110
- compound: "CC(C)Cc1cccc(-c2cc(NC(=O)[C@H]3CNC(=O)C3)nn2-c2ccccc2)c1 [Example 70]"
  reported_measurement: 1.6
- compound: "C[C@H]1C(=O)NC[C@@H]1C(=O)Nc1cc(-c2cccc(OC(F)(F)F)c2)n(-c2cccc(F)c2)n1 [Example 3]"
  reported_measurement: 6.2
- compound: "CCCc1cccc(-c2cc(NC(=O)[C@H]3CNC(=O)C3)nn2-c2cccc(Cl)c2)c1 [Example 95]"
  reported_measurement: 2.4
- compound: "CCC(F)(F)c1cccc(-c2cc(NC(=O)[C@H]3CNC(=O)C3)nn2-c2ccccc2Cl)c1 [Example 140]"
  reported_measurement: 1.1

---

Molecular target: human SGLT1 (Homo sapiens (Human), UniProt P13866)
Assay: SGLT1 inhibitory activity: 14C-AMG uptake into CHO-K1 cell line stably expressing human SGLT1
Assay type: cell-based
Conditions: 14C-AMG uptake, CHO-K1 cells stably expressing human SGLT1
# key: entry, value: log10 IC50
quantity_measured: log10 IC50 (log10 of the value in nM)

- compound: "COc1cccc(-n2nc(NC(=O)[C@@H]3CNC(=O)C3)cc2-c2cccc(COCC(F)(F)F)c2)c1 [Example 446]"
  log10 IC50: 0.75
- compound: "O=C1C[C@H](C(=O)Nc2cc(-c3cccc(CNCC(F)(F)F)c3)n(-c3ccccc3)n2)CN1 [Example 501]"
  log10 IC50: 1.84
- compound: "CCCc1cccc(-c2cc(NC(=O)[C@@H]3COC(=O)N3)nn2-c2ccccc2)c1 [Example 368]"
  log10 IC50: 1.75
- compound: "CCCO[C@H](C)c1cccc(-c2cc(NC(=O)[C@@H]3CNC(=O)C3)nn2-c2ccccc2)c1 [Example 395]"
  log10 IC50: 1.11
- compound: "Cc1cc(CO[C@H](C)C(F)(F)F)cc(-c2cc(NC(=O)[C@@H]3CNC(=O)C3)nn2-c2ccccc2)c1 [Example 410]"
  log10 IC50: 1.34
- compound: "O=C1C[C@H](C(=O)Nc2cc(-c3cc(Cl)cc(COCC(F)(F)F)c3)n(-c3ccccc3)n2)CN1 [Example 586]"
  log10 IC50: 1.66
- compound: "COc1cccc(-n2nc(NC(=O)[C@@H]3CNC(=O)C3)cc2-c2cccc(OC(F)(F)F)c2)c1 [Example 442]"
  log10 IC50: 1.18
- compound: "CCCc1cccc(-c2cc(NC(=O)[C@@H]3CNC(=O)C3)nn2-c2c(C)cccc2C)c1 [Example 325]"
  log10 IC50: 1.67
- compound: "COCCOc1cc(-n2nc(NC(=O)[C@@H]3CNC(=O)C3)cc2-c2cccc(CO[C@H](C)C(F)(F)F)c2)ccc1F [Example 456]"
  log10 IC50: 0.53
- compound: "C[C@@H](OCc1cccc(-c2cc(NC(=O)[C@@H]3CNC(=O)C3)nn2-c2cccc(F)c2)c1)C(F)(F)F [Example 469]"
  log10 IC50: 0.72
- compound: "CCCc1cccc(-c2cc(NC(=O)C3CNC(=O)C3CC)nn2-c2ccccc2)c1 (single isomer, unassigned) [Example 307]"
  log10 IC50: 0.78
- compound: "CCOCc1cccc(-c2cc(NC(=O)[C@H]3CNC(=O)C3)nn2-c2ccccc2)c1 [Example 285]"
  log10 IC50: 1.32
- compound: "CC(C)CCOc1cccc(-c2cc(NC(=O)[C@@H]3CNC(=O)C3)nn2-c2ccccc2)c1 [Example 319]"
  log10 IC50: 1.45
- compound: "CCCc1cccc(-c2cc(NC(=O)[C@@H]3CNC(=O)C3)nn2-c2cccc(OCC(C)C)c2)c1 [Example 381]"
  log10 IC50: 1.06
- compound: "CCCc1cccc(-c2cc(NC(=O)[C@@H]3CNC(=O)C3)nn2-c2ccc(OCC)cc2)c1 [Example 372]"
  log10 IC50: 1.15
